- Test system: MCF-7
- TEST DETAILS: MTT viability assay, MCF-7 (breast cancer)
- Format: cell-based
- DETAILS: Homo sapiens, MCF7, 24 h incubation, mean ± standard error
MEASURED PROPERTY: IC50 (mg/L)

MOLECULE: COc1ccc(C2C(C#N)=C(N)Oc3ccc4cc(OC)ccc4c32)c(OC)c1 (stereo not drawn)
QUANTITY UNIT: mg/L
OBSERVED MEASUREMENT: 16

I = COc1ccc(C2C(C#N)=C(N)Oc3ccc4cc(Br)ccc4c32)cc1OC (stereo not drawn)
II = COc1ccc2c3c(ccc2c1)OC(N)=C(C#N)C3c1ccc(Br)cc1 (stereo not drawn)
III = COc1ccc2c3c(ccc2c1)OC(N)=C(C#N)C3c1ccc(F)cc1 (stereo not drawn)
IV = COc1cccc2c1C(=O)c1c(O)c3c(c(O)c1C2=O)C[C@@](O)(C(=O)CO)C[C@@H]3O[C@H]1C[C@H](N)[C@H](O)[C@H](C)O1 [Doxorubicin, reference compound]
V = COc1ccc2c3c(ccc2c1)OC(N)=C(C#N)C3c1ccc(OC)c(OC)c1 (stereo not drawn)
Endpoint returns the given molecules ordered by ascending IC50. Response field: labels, in requested order.
IV, I, II, III, V
(IV: 0.4 mg/L, I: 0.66 mg/L, II: 2 mg/L, III: 4.4 mg/L, V: 41.1 mg/L)

* * *

- Test system: HFL-1
- TEST DETAILS: MTT viability assay, HFL-1 (normal fibroblast lung)
- Type: cell-based
- DETAILS: Homo sapiens, HFL1, 24 h incubation, normal cell line, mean ± standard error
- Description: Compounds 4a–h and 6a–h were initially evaluated for in vitro antitumour activity against three different human cell lines: MCF-7, HCT-116, and HepG-2, and only the representative active cytotoxic compounds were further evaluated against the normal HFL-1 cell line. […] The measurements of cell growth and the in vitro cytotoxicity evaluation were determined using viability assay as described in literature[31–33] and the result was cited in Table 1 and Figure 2. […]
MEASURED PROPERTY: IC50 (µg/mL)
Just the number in µg/mL, nothing appended.

COMPOUND: COc1ccc2c3c(ccc2c1)OC(N)=C(C#N)C3c1ccc(C)cc1 (centres unmarked) [Compound 6e]
MEASURED PROPERTY: IC50
OBSERVED MEASUREMENT: 29.7

State the recorded IC50 for this entry: N#CC1=C(N)Oc2ccc3cc(Br)ccc3c2C1c1ccc(Cl)cc1 (centres unmarked) [Compound 4c]
15.2

State the recorded IC50 for this entry: COc1ccc(C2C(C#N)=C(N)Oc3ccc4cc(Br)ccc4c32)cc1OC (centres unmarked) [Compound 4h]
12.9

State the recorded IC50 for this entry: COc1ccc2c3c(ccc2c1)OC(N)=C(C#N)C3c1ccc(Br)cc1 (centres unmarked) [Compound 6d]
35.5

State the recorded IC50 for this entry: Cc1ccc(C2C(C#N)=C(N)Oc3ccc4cc(Br)ccc4c32)cc1 (centres unmarked) [Compound 4e]
22.4

* * *

Examples of compounds with documented melting point follow.

State the recorded melting point for this entry: COc1ccc(C2C(C#N)=C(N)Oc3ccc4cc(OC)ccc4c32)cc1 (stereo not shown) [Compound 6f]
222 to 223 °C

State the recorded melting point for this entry: N#CC1=C(N)Oc2ccc3cc(Br)ccc3c2C1c1ccccc1 (stereo not shown) [Compound 4a]
245 to 246 °C

State the recorded melting point for this entry: N#CC1=C(N)Oc2ccc3cc(Br)ccc3c2C1c1ccc(Cl)cc1 (stereo not shown) [Compound 4c]
260 to 261 °C

State the recorded melting point for this entry: COc1ccc2c3c(ccc2c1)OC(N)=C(C#N)C3c1ccccc1 (stereo not shown) [Compound 6a]
237 to 238 °C
